All values here come from ChEMBL document CHEMBL1201862.

- Test system: SF-268
- test name: NCI tumour cell line growth inhibition, 48 h
Activity calls are given as the source filed them. Cut-off read from the data, not from the text of the source: active = GI50 up to about 1.1 µM and inactive = higher. Peptide text beside a SMILES is read from it. * marks the point of attachment. Boc = CC(C)(C)OC(=O)*
Outcome codes: active, inactive

>  <compound>
CO[C@H]1[C@@H](O)[C@@H](C)O[C@@H](O[C@H]2CC[C@@]3(C)[C@H](CC[C@@H]4[C@@H]3CC[C@]3(C)[C@@H](C5=CC(=O)OC5)CC[C@]43O)C2)[C@@H]1O [ODOROSIDE H]

>  <cat>
active

$$$$
>  <compound>
Cc1cc(S(=O)(=O)Nc2n[nH]c(Nc3ccccc3)n2)c(S)cc1Cl

>  <cat>
inactive

$$$$
>  <compound>
CC1CCc2sc3nc(S)n(C)c(=O)c3c2C1 (centres undefined)

>  <cat>
inactive

$$$$
>  <compound>
OCCNc1ncnc2c1ncn2C1OC(CO)C(O)C1O (centres undefined)

>  <cat>
inactive

$$$$
>  <compound>
CCN(CC)c1ccc(C2NC(=O)c3ccccc3N2)cc1 (centres undefined)

>  <cat>
inactive

$$$$
>  <compound>
OCCCC(O)(c1ccccc1)c1ccccc1

>  <cat>
inactive

$$$$
>  <compound>
CC(NC(=O)OC(C)(C)C)C(=O)NC(Cc1ccccc1)C(=O)NCC(=O)O (stereo not drawn) (Boc-Ala-Phe-Gly-OH; configuration not given here)

>  <cat>
inactive

$$$$
>  <compound>
CC(=O)n1cc(C2CC23N=C(c2ccccc2)OC3=O)c2ccccc21 (centres undefined)

>  <cat>
inactive

$$$$
>  <compound>
CC(=O)NCCC1CN(C(=O)/C=C/I)c2ccccc21 (centres undefined)

>  <cat>
inactive

$$$$

----------
- Tested on: U-251
- test name: NCI tumour cell line growth inhibition, 48 h
Activity calls are given as the source filed them. Cut-off read from the data, not from the text of the source: active = GI50 up to about 1.1 µM and inactive = higher.

>  <compound>
N#CCOc1ccc(/C=C/C(=O)c2ccc(Cl)cc2)cc1

>  <GI50>
25.8 µM (inactive)

$$$$
>  <compound>
COc1cccc(CSCC(=O)O)c1

>  <GI50>
> 100 µM (inactive)

$$$$
>  <compound>
Cc1ccccc1C1OC(=O)c2ccccc21 (centres undefined)

>  <GI50>
> 100 µM (inactive)

$$$$
>  <compound>
CC1=C(C(=O)Nc2ccccc2C)C(c2ccco2)C(C(=O)Nc2ccccc2C)=C(C)N1C

>  <GI50>
> 100 µM (inactive)

$$$$
>  <compound>
COc1ccc(/C=C2\CCC(C)(CN(C)C)C2=O)cc1 (centres undefined)

>  <GI50>
76.4 µM (inactive)

$$$$
>  <compound>
COc1cc2oc(-c3ccccc3)cc(=O)c2c(O)c1C

>  <GI50>
> 100 µM (inactive)

$$$$
>  <compound>
OCCNc1ncnc2c1ncn2C1OC(CO)C(O)C1O (centres undefined)

>  <GI50>
> 100 µM (inactive)

$$$$
>  <compound>
CCN(CC)C(=O)Cn1c(C)cc2ccccc21

>  <GI50>
> 100 µM (inactive)

$$$$
>  <compound>
C[C@H](CCC(=O)O)[C@H]1CC[C@H]2[C@@H]3[C@@H](O)C[C@@H]4C[C@H](O)CC[C@]4(C)[C@H]3CC[C@]12C

>  <GI50>
58.6 µM (inactive)

$$$$
>  <compound>
N#CCc1c(F)c(F)c(F)c(F)c1F

>  <GI50>
> 100 µM (inactive)

$$$$
>  <compound>
Fc1cccc(F)c1C1SCc2nc3cc(Cl)c(Cl)cc3n21 (centres undefined)

>  <GI50>
> 100 µM (inactive)

$$$$
>  <compound>
COC(=O)/C=C\C(C#N)(C#N)/N=C/c1cccs1

>  <GI50>
16.6 µM (inactive)

$$$$
>  <compound>
CC(=O)Nc1ccc(NC(=O)CC(=O)Nc2ccc(NC(C)=O)cc2)cc1

>  <GI50>
32.1 µM (inactive)

$$$$
>  <compound>
CNC(SC)=C1C(=O)OC(C)(C)OC1=O

>  <GI50>
18.1 µM (inactive)

$$$$
>  <compound>
O=C1Nc2c(ccc(Cl)c2I)C1=O

>  <GI50>
25.5 µM (inactive)

$$$$
>  <compound>
CC(=O)NCCC1CN(C(=O)/C=C/I)c2ccccc21 (centres undefined)

>  <GI50>
10.8 µM (inactive)

$$$$
>  <compound>
OCC(O)COCn1cc(Cn2ncc3c(NCc4ccccc4)ncnc32)nn1 (centres undefined)

>  <GI50>
> 100 µM (inactive)

$$$$
>  <compound>
CC(Cc1ccc(O)cc1)NCC(O)c1ccc(O)c(O)c1 (centres undefined)

>  <GI50>
> 100 µM (inactive)

$$$$
>  <compound>
CC(C)[C@@H]1CC[C@@H](C)C[C@H]1OC(=O)c1c2n(c3ccccc13)C[C@H]1OC(C)(C)O[C@@H]21

>  <GI50>
5.14 µM (inactive)

$$$$
>  <compound>
N#CC(c1cc(Cl)ncn1)c1nc2cc(C(F)(F)F)ccc2s1 (centres undefined)

>  <GI50>
3.08 µM (inactive)

$$$$
>  <compound>
Nc1cnc(Nc2cccc3ccccc23)o1

>  <GI50>
> 10 µM (inactive)

$$$$
>  <compound>
CC(C)=CCC/C(C)=C/CC/C(C)=C/[C@@H]1[C@@H](CO)[C@]1(C)CC/C=C(\C)CCC=C(C)C

>  <GI50>
53.7 µM (inactive)

$$$$
>  <compound>
COc1cc(CC2C(=O)OCC2Cc2ccc(OC)c(OC)c2)ccc1O (centres undefined)

>  <GI50>
> 100 µM (inactive)

$$$$
>  <compound>
Cc1ccc(-c2cc(=O)c3cc(C)c(C)c(C(=O)O)c3o2)cc1

>  <GI50>
> 100 µM (inactive)

$$$$
>  <compound>
CC(=O)NC1=C(N)C(=O)c2ccccc2C1=O

>  <GI50>
56.5 µM (inactive)

$$$$
>  <compound>
CC(C)(CC(=O)Nc1ccccc1)C(=O)O

>  <GI50>
> 100 µM (inactive)

$$$$
>  <compound>
C=CCN(c1cc(OCc2ccccc2)c2c(c1)c(C)cn2S(=O)(=O)c1ccccc1)S(C)(=O)=O

>  <GI50>
> 100 µM (inactive)

$$$$
>  <compound>
CCc1ccc(Nc2ccc([N+](=O)[O-])cc2[N+](=O)[O-])cc1

>  <GI50>
77.1 µM (inactive)

$$$$
>  <compound>
COc1ccc(C(=O)/C=C/c2ccc(OCC(=O)N3CCN(c4ccccc4)CC3)cc2)cc1

>  <GI50>
28.4 µM (inactive)

$$$$
>  <compound>
CC(=O)Nc1ccc2c3c(cc(O)c2c1)N(C(=O)CCCCC(=O)Nc1ccc2c4c(cc(O)c2c1)N(C(=O)OC(C)(C)C)CC4CCl)CC3CCl (centres undefined)

>  <GI50>
1.53 µM (inactive)

$$$$
>  <compound>
CN(C)CCOc1ccc2[nH]c(C(=O)N3CC(CCl)c4c3cc(NC(=O)OCc3ccc([N+](=O)[O-])cc3)c3ccccc43)cc2c1 (centres undefined)

>  <GI50>
1.36 µM (inactive)

$$$$
>  <compound>
C/C=C1/CN2CCC34c5ccccc5N(C)C23C2CC1C4(C(=O)OC)C(OC(C)=O)O2 (centres undefined)

>  <GI50>
> 100 µM (inactive)

$$$$
>  <compound>
CC(=O)OCC1OC(n2c(C)c(C(C)=O)c(-c3cccc4ccccc34)c(C#N)c2=S)C(OC(C)=O)C(OC(C)=O)C1OC(C)=O (centres undefined)

>  <GI50>
> 100 µM (inactive)

$$$$
>  <compound>
C[C@]12CC(C#N)C(=O)C(O)=C1CC[C@@H]1C2CC[C@@]2(C)C1CC[C@@H]2O (some centres undefined)

>  <GI50>
> 100 µM (inactive)

$$$$
